The reported numbers originate from ChEMBL document CHEMBL1132597.

tested.system: Corticotropin-releasing factor receptor 1 (Rattus norvegicus)
protocol.text: Binding affinity was determined against corticotropin releasing factor receptor 1
experimental.setup: read-out: Ki
Reported Ki values for a set of compounds
Express it in nM; write the number only.

[
  {
    "smiles.structure": "Cc1cc(N2CCOCC2)c2c(C#N)cn(-c3ccc(C(C)C)cc3Br)c2n1",
    "tested.system": "Corticotropin-releasing factor receptor 1 (Rattus norvegicus)",
    "units": "nM",
    "Ki": 112
  },
  {
    "smiles.structure": "CCN(c1nc(C)cc(N2CCOCC2)n1)c1ccc(C(C)C)cc1Br",
    "tested.system": "Corticotropin-releasing factor receptor 1 (Rattus norvegicus)",
    "units": "nM",
    "Ki": 22
  },
  {
    "smiles.structure": "Cc1cc(Cl)c2ccn(-c3ccc(C(C)C)cc3Br)c2n1",
    "tested.system": "Corticotropin-releasing factor receptor 1 (Rattus norvegicus)",
    "units": "nM",
    "Ki": 67
  }
]

Q) Recorded Ki of Cc1cc(-c2ccccc2)c2c(C#N)cn(-c3ccc(C(C)C)cc3Br)c2n1 , please.
A) 34

====

Reported Ki values for a set of compounds
tested.system: UniProt P35353
protocol.text: Binding affinity was determined against corticotropin releasing factor receptor 1
experimental.setup: read-out: Ki

Consider the reported Ki for these compounds:
[
  {
    "smiles.structure": "Cc1cc(Cl)nc2c1c(C#N)cn2-c1ccc(C(C)C)cc1Br",
    "Ki": "446 nM"
  },
  {
    "smiles.structure": "Cc1ccnc2c1c(C#N)cn2-c1ccc(C(C)C)cc1Br",
    "Ki": "> 10000 nM"
  },
  {
    "smiles.structure": "Cc1ccnc2c1ccn2-c1ccc(C(C)C)cc1Br",
    "Ki": "> 10000 nM"
  }
]

Q) Recorded Ki of Cc1cc(C)c2c(C#N)cn(-c3ccc(C(C)C)cc3Br)c2n1 , please.
A) 363 nM

Q) Subsequent entry: Cc1ccc2ccn(-c3ccc(C(C)C)cc3Br)c2n1
A) 222 nM

Q) Subsequent entry: CCN(c1nc(C)cc(C)n1)c1c(Br)cc(OC)cc1OC
A) 5 nM

====

tested.system: Corticotropin-releasing factor receptor 1 (Rattus norvegicus, UniProt P35353)
protocol.text: Binding affinity was determined against corticotropin releasing factor receptor 1
experimental.setup: read-out: Ki
measurement.type: Ki (nM)
Express it in nM; write the number only.

[
  {
    "smiles.structure": "COc1cc(Br)c(-n2cc(C#N)c3c(C)cc(C)nc32)c(OC)c1",
    "measurement.type": "Ki",
    "readout.number": 29
  },
  {
    "smiles.structure": "Cc1cc(Cl)c2c(C#N)cn(-c3ccc(C(C)C)cc3Br)c2n1",
    "measurement.type": "Ki",
    "readout.number": 722
  },
  {
    "smiles.structure": "Cc1cc(N2CCOCC2)c2ccn(-c3ccc(C(C)C)cc3Br)c2n1",
    "measurement.type": "Ki",
    "readout.number": 28
  }
]

Q) Recorded Ki of Cc1cc(Cl)nc2c1ccn2-c1ccc(C(C)C)cc1Br , please.
A) 79

Q) Subsequent entry: Cc1cc(-c2ccccc2)c2ccn(-c3ccc(C(C)C)cc3Br)c2n1
A) 36

====

tested.system: Corticotropin-releasing factor receptor 1 (Rattus norvegicus, UniProt P35353)
Sequence (P35353 whole entry): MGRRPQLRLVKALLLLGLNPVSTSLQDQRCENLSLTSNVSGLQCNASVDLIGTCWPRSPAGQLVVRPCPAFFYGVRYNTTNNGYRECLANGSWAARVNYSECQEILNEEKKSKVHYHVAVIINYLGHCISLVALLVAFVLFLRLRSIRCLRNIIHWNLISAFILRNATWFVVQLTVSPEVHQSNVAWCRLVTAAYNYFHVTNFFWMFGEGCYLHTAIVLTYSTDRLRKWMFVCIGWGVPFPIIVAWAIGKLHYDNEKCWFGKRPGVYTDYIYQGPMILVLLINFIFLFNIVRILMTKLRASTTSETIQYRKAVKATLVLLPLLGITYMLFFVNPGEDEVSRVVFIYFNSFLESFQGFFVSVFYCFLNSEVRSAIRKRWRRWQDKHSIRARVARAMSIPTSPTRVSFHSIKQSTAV
protocol.text: Binding affinity was determined against corticotropin releasing factor receptor 1
experimental.setup: read-out: Ki
measurement.type: log10(Ki) (log10 of the value in nM)
Heads up: the numbers are on a log10 scale; they represent Ki in nM.

Consider the reported log10(Ki) for these compounds:
[
  {
    "smiles.structure": "Cc1cc(C)nc(N(C)c2ccc(C(C)C)cc2I)n1",
    "measurement.type": "log10(Ki)",
    "readout.number": 1.68
  },
  {
    "smiles.structure": "Cc1cc(C)c2ccn(-c3ccc(C(C)C)cc3Br)c2n1",
    "measurement.type": "log10(Ki)",
    "readout.number": 1.67
  },
  {
    "smiles.structure": "CCN(c1nc(C)nc(N2CCOCC2)n1)c1c(Br)cc(OC)cc1OC",
    "measurement.type": "log10(Ki)",
    "readout.number": 1.63
  },
  {
    "smiles.structure": "COc1cc(Br)c(-n2ccc3c(C)cc(C)nc32)c(OC)c1",
    "measurement.type": "log10(Ki)",
    "readout.number": 0.00
  }
]

// next entry
Q) Recorded log10(Ki) of Cc1ccc2c(C#N)cn(-c3ccc(C(C)C)cc3Br)c2n1 , please.
A) 3.11

====

tested.system: Corticotropin-releasing factor receptor 1 (Rattus norvegicus)
protocol.text: Binding affinity was determined against corticotropin releasing factor receptor 1
experimental.setup: read-out: Ki
measurement.type: Ki

Consider the reported Ki for these compounds:
[
  {
    "smiles.structure": "Cc1cc(C)c2c(C(=O)O)cn(-c3ccc(C(C)C)cc3Br)c2n1",
    "result": "> 10 µM"
  },
  {
    "smiles.structure": "Cc1cc(=O)[nH]c2c1c(C#N)cn2-c1ccc(C(C)C)cc1Br",
    "result": "> 10 µM"
  }
]

Q) Recorded Ki of Cc1cc(-c2ccccc2)nc2c1ccn2-c1ccc(C(C)C)cc1Br , please.
A) > 10 µM

Q) Subsequent entry: CCN(c1cc(C)nc(C)n1)c1ccc(C(C)C)cc1Br
A) > 1 µM

Q) Subsequent entry: Cc1cc(-c2ccccc2)nc2c1c(C#N)cn2-c1ccc(C(C)C)cc1Br
A) > 100 µM

Q) Subsequent entry: Cc1ccc2c(C#N)cn(-c3ccc(C(C)C)cc3Br)c2[n+]1[O-]
A) > 10 µM
